Recorded inhibition at 1 µM for the following compounds
Molecular target: human recombinant serotonin (5-Hydroxytryptamine) 5-HT7 receptor (Homo sapiens)
Sequence (P34969 whole entry): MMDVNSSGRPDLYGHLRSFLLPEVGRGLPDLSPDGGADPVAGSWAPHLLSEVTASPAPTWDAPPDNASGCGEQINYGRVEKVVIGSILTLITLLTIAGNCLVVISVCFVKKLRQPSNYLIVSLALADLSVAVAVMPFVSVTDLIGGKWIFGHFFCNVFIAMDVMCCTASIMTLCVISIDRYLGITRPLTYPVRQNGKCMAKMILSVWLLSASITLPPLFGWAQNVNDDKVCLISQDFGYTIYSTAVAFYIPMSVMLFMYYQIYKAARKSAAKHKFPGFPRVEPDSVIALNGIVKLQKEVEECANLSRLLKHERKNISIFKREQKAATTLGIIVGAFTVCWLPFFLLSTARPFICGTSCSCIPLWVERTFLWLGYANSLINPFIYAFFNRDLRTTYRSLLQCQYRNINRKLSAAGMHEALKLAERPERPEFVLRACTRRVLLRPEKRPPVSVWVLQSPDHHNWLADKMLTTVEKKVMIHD
Test: Serotonin 5-HT7 radioligand binding ([3H]LSD)
Conditions: compound at 1 μM; read-out: Inhibition of ligand binding, Serotonin 5-HT7 (percent inhibition of specific binding)
Your answer should be a plain number; it is taken to be in %.

* C/C(=C/n1c2c(c3cc(Cl)ccc31)CN(C)CC2)c1cc(F)c(F)cc1Cl [Compound 240] | 99

// fetch inhibition at 1 µM given entry Cc1ccc2c(c1)c1c(n2CC(O)(c2ccccc2)c2ccc(F)cc2)CCN(C)C1 (centres unmarked) [Compound No. 176] 65

Input C/C(=C\n1c2c(c3cc(C)ccc31)CN(C)CC2)c1ccc(F)c(F)c1 [Compound 230] , output reported inhibition at 1 µM. 93

Identify measured inhibition at 1 µM associated with C/C(=C\n1c2c(c3cccc(F)c31)CN(C)CC2)c1ccncc1 [Compound 223] 91

For the compound C/C(=C\n1c2c(c3ccc(C(F)(F)F)cc31)CN(C)CC2)c1ccc(F)cc1 [Compound 229] , give its measured inhibition at 1 µM value. 89
